From: patent US7115749B2

- assay-system: HCV RNA-dependent RNA polymerase NS5B (Δ21) (Hepatitis C virus genotype 1b, UniProt P26663)
- Sequence (P26663 2420-2989, stated change not applied): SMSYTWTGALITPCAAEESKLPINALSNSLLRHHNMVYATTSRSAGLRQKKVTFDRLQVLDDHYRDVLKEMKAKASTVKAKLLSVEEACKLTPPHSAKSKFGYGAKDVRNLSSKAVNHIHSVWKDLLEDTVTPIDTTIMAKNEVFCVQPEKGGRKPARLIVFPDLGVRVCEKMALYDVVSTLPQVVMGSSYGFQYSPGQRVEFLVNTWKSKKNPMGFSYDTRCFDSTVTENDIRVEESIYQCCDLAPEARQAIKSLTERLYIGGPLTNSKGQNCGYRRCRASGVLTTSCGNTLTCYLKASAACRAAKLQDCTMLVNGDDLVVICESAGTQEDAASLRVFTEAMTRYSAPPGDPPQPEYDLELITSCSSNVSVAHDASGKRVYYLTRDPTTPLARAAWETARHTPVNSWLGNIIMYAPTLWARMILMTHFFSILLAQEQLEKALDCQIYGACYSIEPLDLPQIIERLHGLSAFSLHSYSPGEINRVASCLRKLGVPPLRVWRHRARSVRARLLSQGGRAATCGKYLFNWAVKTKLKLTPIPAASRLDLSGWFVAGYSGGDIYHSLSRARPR
Could you please mark YES for values of IC50 below 3 µM and NO for values at or above it?

**Query** is_below(IC50, 3 µM) for O=C(Cn1nc(C(=O)O)cc1OCc1ccccc1)Nc1ccccc1OCc1ccccc1 [Compound 5] ?
**Result** NO

**Query** Now give it for O=C(Cn1nc(C(=O)O)cc1OCc1ccccc1Cl)N[C@H]1CCCC[C@@H]1OCc1ccccc1 [Compound 13] too.
**Result** NO

**Query** Try this compound too: O=C(Cn1nc(C(=O)O)cc1OCc1ccccc1-c1ccc(Cl)cc1)N[C@H]1CCCC[C@@H]1OCc1ccccc1 [Compound 10]
**Result** YES

**Query** Then O=C(Cn1nc(C(=O)O)cc1OCc1ccc(F)c(Cl)c1)N[C@H]1CCCC[C@@H]1OCc1ccccc1 [Compound 42] ?
**Result** NO

**Query** Now try O=C(Cn1nc(C(=O)O)cc1OCc1cccc(C(F)(F)F)c1)N[C@H]1CCCC[C@@H]1OCc1ccccc1 [Compound 18] .
**Result** YES

**Query** Also check O=C(Cn1nc(C(=O)O)cc1OCc1cc(Cl)ccc1Cl)N[C@H]1CCCC[C@@H]1OCc1ccccc1 [Compound 12]
**Result** NO

**Query** Consider next the compound COc1cccc(-c2ccccc2COc2cc(C(=O)O)nn2CC(=O)N[C@H]2CCCC[C@@H]2OCc2ccccc2)c1 [Compound 49] in the same way.
**Result** NO

**Query** Another compound to look at: O=C(Cn1nc(C(=O)O)cc1OCc1ccccc1-c1ccccc1)Nc1ccccc1OCc1ccccc1 [Compound 7]
**Result** NO

**Query** Ok, now O=C(Cn1nc(C(=O)O)cc1OCc1cccc(Cl)c1)N[C@H]1CCCC[C@@H]1OCc1ccccc1 [Compound 27]
**Result** NO

**Query** Let us now turn to O=C(Cn1nc(C(=O)O)cc1OCc1ccccc1-c1ccc(C(=O)O)cc1)N[C@H]1CCCC[C@@H]1OCc1ccccc1 [Compound 56]
**Result** NO

**Query** What do you have for O=C(Cn1nc(C(=O)O)cc1OCc1ccc(F)cc1C(F)(F)F)N[C@H]1CCCC[C@@H]1OCc1ccccc1 [Compound 38] ?
**Result** YES

**Query** Let us now turn to O=C(Cn1nc(C(=O)O)cc1OCc1ccc(F)c(F)c1)N[C@H]1CCCC[C@@H]1OCc1ccccc1 [Compound 25]
**Result** NO

**Query** How about this compound: COc1ccc(-c2ccccc2COc2cc(C(=O)O)nn2CC(=O)N[C@H]2CCCC[C@@H]2OCc2ccccc2)cc1 [Compound 50]
**Result** YES

**Query** Ok, now O=C(Cn1nc(C(=O)O)cc1OCc1cccc(F)c1C(F)(F)F)N[C@H]1CCCC[C@@H]1OCc1ccccc1 [Compound 44]
**Result** NO

**Query** Another compound to look at: O=C(Cn1nc(C(=O)O)cc1OCc1ccc(C(F)(F)F)c(F)c1)N[C@H]1CCCC[C@@H]1OCc1ccccc1 [Compound 32]
**Result** YES

###

- assay-system: HCV RNA-dependent RNA polymerase NS5B (Δ21) (Hepatitis C virus genotype 1b, UniProt P26663)
reported-metric: pIC50
Keep it numeric: pIC50 is minus log10 of the concentration in mol/L.

**Query** What pIC50 value was documented for this compound, O=C(Cn1nc(C(=O)O)cc1OCc1ccc(F)cc1)N[C@H]1CCCC[C@@H]1OCc1ccccc1 ?
**Result** 4.89

**Query** Can you check O=C(Cn1nc(C(=O)O)cc1OCc1ccc(F)cc1Cl)N[C@H]1CCCC[C@@H]1OCc1ccccc1 next?
**Result** 5.02

**Query** What would you report for O=C(Cn1nc(C(=O)O)cc1OCc1ccccc1CS(=O)(=O)c1ccccc1)N[C@H]1CCCC[C@@H]1OCc1ccccc1 ?
**Result** 4.49

**Query** Then CCOc1ccccc1COc1cc(C(=O)O)nn1CC(=O)Nc1ccccc1OCc1ccccc1 ?
**Result** 4.40

**Query** How about this compound: O=C(Cn1nc(C(=O)O)cc1OCc1ccc(Cl)cc1)N[C@H]1CCCC[C@@H]1OCc1ccccc1
**Result** 5.62
